Below is a list of entries, each paired with its recorded EC50 value.
Test system: HBV genotype D
Test: Antiviral activity against HBV genotype D infected in human HepG2.2.15 cells assessed as inhibition of viral DNA level treated twice for 3 days measured after 6 days by real time PCR
Format: functional, organism-based
Details: Hepatitis B virus
Dear colleague, please return just the value in nM, with no unit written.

Query block: Look up EC50 for this compound: `O=C(Nc1ccc(F)cc1)c1cccc(S(=O)(=O)NC2CCOCC2)c1`
Result block: 930

Query block: Look up EC50 for this compound: `O=C(Nc1ccc(F)cc1)c1cccc(NS(=O)(=O)C2CCCCC2)c1`
Result block: 1100

Query block: Look up EC50 for this compound: `O=C(Nc1ccccc1)c1cc(S(=O)(=O)NC2CCCCC2)ccc1F`
Result block: 660

Query block: Look up EC50 for this compound: `O=C(Nc1ccc(F)cc1)c1cccc(S(=O)(=O)NC2CCC2)c1`
Result block: 830

Query block: Look up EC50 for this compound: `CC1(NS(=O)(=O)c2cccc(C(=O)Nc3ccc(F)cc3)c2)COC1`
Result block: 960

----------
Experiment: Kinetic solubility of the compound at pH 7.4 after 4 hrs by UPLC-UV analysis
Assay type: physicochemical
Conditions: buffer, read-out: Kinetic_solubility
Below is a list of entries, each paired with its recorded solubility kinetic at 4 h value.
Dear colleague, please return just the value in µM, with no unit written.

Consider the worked cases shown below.
O=C(Nc1ccc(F)cc1)c1cccc(S(=O)(=O)NC2CCCC2)c1
83
CC(C)NS(=O)(=O)c1cccc(C(=O)Nc2ccc(F)c(C(C)C)c2)c1
13
O=S(=O)(NC1CCCCC1)c1ccc(F)c(-c2ncc(-c3ccccc3)[nH]2)c1
3
O=C(Nc1ccccc1)c1cccc(S(=O)(=O)NC2CCCC2)c1
91

Kindly consider the entry below.
Query block: Look up solubility kinetic at 4 h for this molecule: `Cc1cc(NC(=O)c2cccc(S(=O)(=O)NC3CCCC3)c2)ccc1F`
Result block: 33

----------
Assay: Cytotoxicity against human HepG2 cells after 4 to 6 days by resazurin assay
Assay type: cell-based
Conditions: HepG2 cells
Below is a list of entries, each paired with its recorded CC50 value.

Cc1c(F)ccc(NC(=O)c2cccc(S(=O)(=O)NC3(C)COC3)c2)c1C
> 25 µM

Query block: Look up CC50 for this compound: `CC(C)NS(=O)(=O)c1cccc(C(=O)Nc2ccc(F)c(C(C)C)c2)c1`
Result block: 29.8 µM

Query block: Look up CC50 for this compound: `COc1cc(NC(=O)c2cccc(S(=O)(=O)N[C@H]3CCOC3)c2)ccc1F`
Result block: > 25 µM

----------
Experiment: Cytotoxicity against human HepG2 cells after 4 days by resazurin assay
Assay type: cell-based
Readout kind: CC50 at 96 h

Query block: Look up CC50 at 96 h for this compound: `O=C(NC1CCCCC1)c1cc(S(=O)(=O)NC2CCCCC2)ccc1F`
Result block: > 25 µM

Query block: Look up CC50 at 96 h for this compound: `O=C(Nc1ccccc1)c1cc(S(=O)(=O)NC2CCCCC2)ccc1F`
Result block: > 25 µM

Query block: Look up CC50 at 96 h for this compound: `O=C(Nc1ccc(F)cc1)c1cccc(NS(=O)(=O)C2CCCC2)c1`
Result block: > 50 µM

Query block: Look up CC50 at 96 h for this compound: `O=C(Nc1ccc(F)cc1)c1cccc(S(=O)(=O)NC2CCOCC2)c1`
Result block: > 100 µM

Query block: Look up CC50 at 96 h for this compound: `O=C(Nc1ccc(F)cc1)c1cccc(S(=O)(=O)N2CCOCC2)c1`
Result block: > 100 µM

----------
Below is a list of entries, each paired with its recorded Ratio value.
Tested on: Hepatitis B virus
Assay: Induction of HBV capsid core protein CP149 aggregation assessed as ratio between area under the curve for observed amount of core dimer and area under the curve for aggregated core protein at 20 uM after 24 hrs by size exclusion chromatographic analysis

Consider the worked cases shown below.
CC(=O)N1CCC(NS(=O)(=O)c2cccc(C(=O)Nc3ccc(F)cc3)c2)CC1
2.9
O=C(Nc1ccc(F)cc1)c1cccc(S(=O)(=O)N2CCOCC2)c1
0.6

Kindly consider the entry below.
Query block: So what Ratio did `O=S(=O)(NC1CCCCC1)c1ccc(F)c(-c2ncc(-c3ccccc3)[nH]2)c1` get with Hepatitis B virus?
Result block: 10.2

----------
Assay: Cytotoxicity against human HepG2 cells after 4 days by resazurin assay
Assay type: cell-based
Readout kind: CC50 at 96 h (µM)
Dear colleague, please return just the value in µM, with no unit written.

O=C(Nc1ccc(F)cc1)c1cccc(NC(=O)C2CCCCC2)c1
57.7
O=C(Nc1ccc(F)cc1)c1cccc(S(=O)(=O)NC2CCCC2)c1
32.7

Query block: Look up CC50 at 96 h for this compound: `O=C(NCc1ccccc1)c1cc(S(=O)(=O)NC2CCCCC2)ccc1F`
Result block: 93.9

----------
Assay: Drug metabolism in human liver microsomes at 1 uM after 15 mins by LC-MS/MS analysis
Format: ADME, microsome
Conditions: read-out: Drug metabolism
Below is a list of entries, each paired with its recorded metabolised at 0.25 h, 1 µM value.
Dear colleague, please return just the value in %, with no unit written.

Consider the worked cases shown below.
O=C(Nc1cccc2ccccc12)c1cc(S(=O)(=O)NC2CCCCC2)ccc1F
94
Cc1cc(NC(=O)c2cccc(S(=O)(=O)NC(C)C)c2)ccc1F
26
O=C(Nc1nccs1)c1cc(S(=O)(=O)NC2CCCCC2)ccc1F
85
O=C(Nc1cccc(S(=O)(=O)NC2CCCCC2)c1)c1ccccc1
99

Query block: Look up metabolised at 0.25 h, 1 µM for this molecule: `O=C(Nc1ccc(F)c(F)c1)c1cccc(S(=O)(=O)N[C@H]2CCOC2)c1`
Result block: 5

Query block: Look up metabolised at 0.25 h, 1 µM for this molecule: `O=C(Nc1cccc(F)c1)c1cccc(S(=O)(=O)NC2CCCC2)c1`
Result block: 88

----------
Assay: Cytotoxicity against human HepG2 cells after 6 days by resazurin assay
Format: cell-based
Below is a list of entries, each paired with its recorded CC50 at 144 h value.

O=C(Nc1ccccc1)c1cc(S(=O)(=O)N2CCCCC2)c(Cl)cc1Cl
> 25 µM
CCN(CC)S(=O)(=O)c1ccc(Cl)c(C(=O)Nc2ccccc2)c1
> 25 µM

Kindly consider the entry below.
Query block: Look up CC50 at 144 h for this compound: `Cc1ccccc1NC(=O)c1cccc(S(=O)(=O)NC2CCCCC2)c1`
Result block: > 25 µM

----------
System: HBV genotype D
Test: Antiviral activity against HBV genotype D infected in human HepG2.2.15 cells assessed as inhibition of viral DNA level treated twice for 3 days measured after 6 days by real time PCR
Format: functional, organism-based
Settings: Hepatitis B virus
Checkbox rule: EC50 lower than 800 nM = MET; EC50 not lower than 800 nM = NOT MET.

O=C(NCc1ccccc1)c1cc(S(=O)(=O)NC2CCCCC2)ccc1F
NOT MET
CC(C)NS(=O)(=O)c1cccc(C(=O)Nc2ccc(F)cc2)c1
MET
Cc1c(F)ccc(NC(=O)c2cccc(S(=O)(=O)N[C@H]3CCOC3)c2)c1F
MET
CC(C)(C)NS(=O)(=O)c1cccc(C(=O)Nc2ccc(F)cc2)c1
NOT MET
Cc1c(F)ccc(NC(=O)c2cccc(S(=O)(=O)NC3(C)COC3)c2)c1C
NOT MET

Query block: Report whether reported EC50 is lower than 800 nM (strictly) for `O=C(Nc1ccc(F)c(F)c1)c1cccc(S(=O)(=O)NC2CCCC2)c1`
Result block: MET

Query block: Report whether reported EC50 is lower than 800 nM (strictly) for `O=C(Nc1ccc(F)cc1)c1cccc(NC(=O)C2CCCCC2)c1`
Result block: NOT MET

Query block: Report whether reported EC50 is lower than 800 nM (strictly) for `CN(c1cccc(C(=O)Nc2ccc(F)cc2)c1)S(=O)(=O)C1CCCC1`
Result block: NOT MET

Query block: Report whether reported EC50 is lower than 800 nM (strictly) for `O=C(Nc1cccc(S(=O)(=O)NC2CCCCC2)c1)c1ccc(F)cc1`
Result block: NOT MET

Query block: Report whether reported EC50 is lower than 800 nM (strictly) for `O=C(Nc1ccc(F)cc1)c1cc(S(=O)(=O)NC2CCCC2)ccc1F`
Result block: MET

----------
Below is a list of entries, each paired with its recorded EC50 value.
Test system: HBV genotype D
Assay: Antiviral activity against HBV genotype D infected in human HepG2.2.15 cells assessed as inhibition of viral DNA level treated twice for 3 days measured after 6 days by real time PCR
Format: functional, organism-based
Details: Hepatitis B virus
Please state the value followed by its unit.

O=C(Nc1ccc(F)cc1)c1cccc(S(=O)(=O)N[C@@H]2CCOC2)c1
1180 nM

Query block: Look up EC50 for this compound: `CC[C@H](C)NS(=O)(=O)c1cccc(C(=O)Nc2ccc(F)cc2)c1`
Result block: 750 nM

Query block: Look up EC50 for this compound: `O=C(Nc1ccc(F)cc1)c1cccc(S(=O)(=O)N[C@H]2CCOC2)c1`
Result block: 540 nM
